run.description: Volume of distribution at steady state in Wistar Han rat at 1 mg/kg, iv
Format: ADME, organism-based
details: in vivo, read-out: Vdss
measured.attribute: Vd
Report the figure along with its unit, number first.

Reported Vd ( CCOc1cccnc1Oc1cncc(-c2ncc(C(=O)N[C@@H]3CCNC3)cn2)c1 ) = 4.1 L/kg

----------
run.description: Renal clearance in po dosed cynomolgus monkey
Type: ADME, organism-based, Macaca fascicularis
details: in vivo
measured.attribute: CL renal (mL/min/kg)
Record the value in mL/min/kg, omitting the unit from your answer.

Reported CL renal ( CCOc1cccnc1Oc1cncc(-c2ncc(C(=O)N[C@@H]3CNC[C@@H](F)C3)cn2)c1 ) = 0.29
